Tested on: Staphylococcus epidermidis
procedure-summary: Antimicrobial activity against methicillin-resistant Staphylococcus epidermidis after 24 hrs by broth microdilution method
Type: functional
Threshold 1 µg/mL. MIC below it: Met. MIC at it or above: Not met.

structure | class-label
O=CN(O)C[C@@H](CC1CCCC1)C(=O)N1C[C@@H](F)C[C@H]1C(=O)Nc1ccc(F)c[n+]1[O-] | Not met
Cc1cnc(NC(=O)[C@@H]2C[C@H](C)CN2C(=O)[C@H](CC2CCCC2)CN(O)C=O)s1 | Not met
CCCC[C@H](CN(O)C=O)C(=O)N1[C@H](C(=O)Nc2ccc(C)cn2)C[C@H]2CCCC[C@@H]21 | Not met
Cc1cnc(NC(=O)[C@@H]2C[C@H]3CCCC[C@@H]3N2C(=O)[C@H](CC2CCCC2)CN(O)C=O)s1 | Not met
CCCC[C@H](CN(O)C=O)C(=O)N1C[C@@H](F)C[C@H]1C(=O)Nc1ccc(F)c[n+]1[O-] | Not met
CCCC[C@H](CN(O)C=O)C(=O)N1C[C@@H](C)C[C@H]1C(=O)Nc1ccc(F)c[n+]1[O-] | Met
